- Test system: A498 renal
- assay_name: NCI tumour cell line growth inhibition, 48 h
Exercise: state measured TGI for each of the molecules provided.

stdin: Respond only with TGI recorded for CCCCCCCCCCCCCCCC(=O)OCC1OC(n2cnc3c(=S)nc(N)[nH]c32)C(OC(=O)CCCCCCCCCCCCCCC)C1OC(=O)CCCCCCCCCCCCCCC (centres undefined)
stdout: > 50 µM

stdin: Look up and state reported TGI for C[C@@H]1C[C@]2(C[C@@H](C)[C@H]3C(C[C@@]4(C)CCC[C@@H]5C6=C[C@H](CCC34C)OC6=CC(=O)OC5(C)C)O2)OC1=O (some centres undefined)
stdout: > 51.5 µM

stdin: Identify TGI associated with the molecule `Cc1ccc(NC(=S)Nc2c(C)n(C)n(-c3ccccc3)c2=O)cc1`
stdout: > 100 µM

stdin: Return value of TGI for input `Cn1c(=O)c(Oc2cccc(F)c2)cc2cnc(NC3CCOCC3)nc21` , no commentary.
stdout: > 25 µM
